Target: Protein translocase subunit SecA (Escherichia coli (strain K12))
Test: Assay to Identify E. coli SecA ATPase Inhibitors
Format: functional
Parameters: scale not given: direction of the effect not stated beside the values
Details: 30 µM
Potency and affinity values are given separately.
Exercise: state measured Percent Effect for each of the molecules provided.
Write the value in % as a bare number.

Req: Data request, read-out Percent Effect, for CC(C)CCC(=O)NC(C)c1nnc2n1CCCCC2 (stereo unspecified)
Resp: -1.02

Req: Another molecule to look at: CCc1ccc(C(=O)N2CCCC(c3noc(CC)n3)C2)o1 (stereo unspecified)
Resp: -0.983

Req: O=C(NCc1nnc2n1CCC2)N(Cc1ccco1)C1CC1 ?
Resp: -0.0964

Req: Same for CCCS(=O)(=O)N1CCN(c2cc(-n3cnc(C)c3C)nc(C)n2)CC1
Resp: -2.71

Req: And Cc1cc(CN(C)C(=O)NCc2cccc(N3CCCC3=O)c2)no1 ?
Resp: -4.74

Req: Now consider Cc1nc(C)c(C(=O)NCCNC(=O)c2ccc(F)cc2F)s1 .
Resp: -1.94
